- protocol-summary: aqueous solubility of compound I salts
- Type: physicochemical
- stated-conditions: water
measurement-type: solubility

INSERT INTO measurements (smiles_record, observed) VALUES
  ('CC(C)[C@H](N)C(=O)OCC[C@H](NC(=O)[C@@H]1SCCN1S(=O)(=O)c1ccc(-c2ccccc2)cc1)c1ccc(F)cc1.Cl', '< 1000 µg/mL');

====

- protocol-summary: solubility in water and simulated intestinal media
- Format: physicochemical
- stated-conditions: FeSSIF pH 5.0; read-out: Solubility in FeSSIF
measurement-type: solubility (µg/mL)

INSERT INTO measurements (compound, measurement_type, observed) VALUES
  ('CC(C)[C@H](N)C(=O)OCC[C@H](NC(=O)[C@@H]1SCCN1S(=O)(=O)c1ccc(-c2ccccc2)cc1)c1ccc(F)cc1', 'solubility', 90),
  ('O=C(N[C@@H](CCO)c1ccc(F)cc1)[C@@H]1SCCN1S(=O)(=O)c1ccc(-c2ccccc2)cc1 (stereo in doubt)', 'solubility', 10);
